- System: PSMA+ LNCaP cells
- Experimental Protocol: cell surface binding and internalization of radiolabeled compounds
- Type: cell-based
- Conditions Used: 68Ga-labeled
Where a SMILES comes first, the peptide text is derived from it. [ ]: non-standard residue; d: D form. The star is where a group is joined. DOTA = O=C(O)CN1CCN(CC(=O)O)CCN(CC(=O)*)CCN(CC(=O)O)CC1; EuK = O=C(O)CC[C@H](NC(=O)N[C@@H](CCCCN*)C(=O)O)C(=O)O; 2Nal = N[C@@H](Cc1ccc2ccccc2c1)C(=O)O; Trx = NC[C@H]1CC[C@H](C(=O)O)CC1
Readout Name: Specific Cell Surface Binding (% ID/10^5 cells)
Give bare numbers, in % ID/10^5 cells.

Solved cases below.
Compound	Specific Cell Surface Binding / % ID/10^5 cells
O=C(O)CC[C@H](NC(=O)N[C@@H](CCCCNC(=O)[C@H](CCC(=O)O)NC(=O)[C@H](CCC(=O)O)NC(=O)[C@H](CCC(=O)O)NC(=O)[C@H](Cc1ccc2ccccc2c1)NC(=O)[C@H]1CC[C@H](CNC(=O)CN2CCN(CC(=O)O)CCN(CC(=O)O)CCN(CC(=O)O)CC2)CC1)C(=O)O)C(=O)O [PS-6, DOTA-CHx-2NaI-(E)3-PSMA] ({DOTA-Trx}-[2Nal]EEE-EuK)	0.71
O=C(O)CC[C@H](NC(=O)N[C@@H](CCCCNC(=O)[C@H](Cc1ccc2ccccc2c1)NC(=O)[C@H](Cc1c[nH]cn1)NC(=O)[C@H](Cc1c[nH]cn1)NC(=O)[C@H](Cc1c[nH]cn1)NC(=O)[C@H]1CC[C@H](CNC(=O)CN2CCN(CC(=O)O)CCN(CC(=O)O)CCN(CC(=O)O)CC2)CC1)C(=O)O)C(=O)O [PS10, DOTA-CHx-(H)3-2NaI-PSMA] ({DOTA-Trx}-HHH[2Nal]-EuK)	0.55
O=C(O)CC[C@H](NC(=O)N[C@@H](CCCCNC(=O)[C@H](Cc1ccc2ccccc2c1)NC(=O)[C@H]1CC[C@H](CNC(=O)[C@H](Cc2c[nH]cn2)NC(=O)[C@H](Cc2c[nH]cn2)NC(=O)[C@H](Cc2c[nH]cn2)NC(=O)CN2CCN(CC(=O)O)CCN(CC(=O)O)CCN(CC(=O)O)CC2)CC1)C(=O)O)C(=O)O [PS-7, DOTA-(H)3-CHx-2NaI-PSMA] ({DOTA}-HHH[Trx][2Nal]-EuK)	0.69
O=C(O)CCC(NC(=O)NC(CCCCNC(=O)C(Cc1ccc2ccccc2c1)NC(=O)C1CCC(CNC(=O)CN2CCN(CC(=O)O)CCN(CC(=O)O)CCN(CC(=O)O)CC2)CC1)C(=O)O)C(=O)O (centres unmarked) [PSMA-617, reference compound]	0.72
O=C(O)CC[C@H](NC(=O)N[C@@H](CCCCNC(=O)[C@H](Cc1ccc2ccccc2c1)NC(=O)[C@H]1CC[C@H](CNC(=O)[C@H](Cc2c[nH]cn2)NC(=O)[C@H](CCC(=O)O)NC(=O)[C@H](Cc2c[nH]cn2)NC(=O)[C@H](CCC(=O)O)NC(=O)[C@H](Cc2c[nH]cn2)NC(=O)[C@H](CCC(=O)O)NC(=O)[C@H](Cc2c[nH]cn2)NC(=O)[C@H](CCC(=O)O)NC(=O)CN2CCN(CC(=O)O)CCN(CC(=O)O)CCN(CC(=O)O)CC2)CC1)C(=O)O)C(=O)O [PS-4, DOTA-(EH)4-CHx-2NaI-PSMA] ({DOTA}-EHEHEHEH[Trx][2Nal]-EuK)	1.33

// each compound listed below needs its Specific Cell Surface Binding
1. O=C(O)CC[C@H](NC(=O)N[C@@H](CCCCNC(=O)[C@H](Cc1ccc2ccccc2c1)NC(=O)[C@H](Cc1c[nH]cn1)NC(=O)[C@H](CCC(=O)O)NC(=O)[C@H](Cc1c[nH]cn1)NC(=O)[C@H](CCC(=O)O)NC(=O)[C@H](Cc1c[nH]cn1)NC(=O)[C@H](CCC(=O)O)NC(=O)[C@H]1CC[C@H](CNC(=O)CN2CCN(CC(=O)O)CCN(CC(=O)O)CCN(CC(=O)O)CC2)CC1)C(=O)O)C(=O)O [PS-3, DOTA-Chx-(EH)3-2NaI-PSMA] ({DOTA-Trx}-EHEHEH[2Nal]-EuK)
2. O=C(O)CC[C@H](NC(=O)N[C@@H](CCCCNC(=O)[C@H](Cc1ccc2ccccc2c1)NC(=O)[C@H]1CC[C@H](CNC(=O)[C@H](CCC(=O)O)NC(=O)[C@H](CCC(=O)O)NC(=O)[C@H](CCC(=O)O)NC(=O)CN2CCN(CC(=O)O)CCN(CC(=O)O)CCN(CC(=O)O)CC2)CC1)C(=O)O)C(=O)O [PS-5, DOTA-(E)3-CHx-2NaI-PSMA] ({DOTA}-EEE[Trx][2Nal]-EuK)
3. O=C(O)CC[C@H](NC(=O)N[C@@H](CCCCNC(=O)[C@H](Cc1ccc2ccccc2c1)NC(=O)[C@H](CCC(=O)O)NC(=O)[C@H](CCC(=O)O)NC(=O)[C@H](CCC(=O)O)NC(=O)[C@H]1CC[C@H](CNC(=O)CN2CCN(CC(=O)O)CCN(CC(=O)O)CCN(CC(=O)O)CC2)CC1)C(=O)O)C(=O)O [PS-9, DOTA-CHx-(E)3-2NaI-PSMA] ({DOTA-Trx}-EEE[2Nal]-EuK)
4. O=C(O)CC[C@H](NC(=O)N[C@@H](CCCCNC(=O)[C@H](Cc1c[nH]cn1)NC(=O)[C@H](CCC(=O)O)NC(=O)[C@H](Cc1c[nH]cn1)NC(=O)[C@H](CCC(=O)O)NC(=O)[C@H](Cc1c[nH]cn1)NC(=O)[C@H](CCC(=O)O)NC(=O)[C@H](Cc1ccc2ccccc2c1)NC(=O)[C@H]1CC[C@H](CNC(=O)CN2CCN(CC(=O)O)CCN(CC(=O)O)CCN(CC(=O)O)CC2)CC1)C(=O)O)C(=O)O [PS-1, DOTA-CHx-2NaI-(EH)3-PSMA] ({DOTA-Trx}-[2Nal]EHEHEH-EuK)

### Response
1. 0.84
2. 0.94
3. 0.59
4. 1.09

Would you mind listing Specific Cell Surface Binding for each of the following compounds?
1. O=C(O)CC[C@H](NC(=O)N[C@@H](CCCCNC(=O)[C@H](Cc1ccc2ccccc2c1)NC(=O)[C@H]1CC[C@H](CNC(=O)[C@H](CCC(=O)O)NC(=O)[C@H](Cc2c[nH]cn2)NC(=O)[C@H](CCC(=O)O)NC(=O)[C@H](Cc2c[nH]cn2)NC(=O)[C@H](CCC(=O)O)NC(=O)[C@H](Cc2c[nH]cn2)NC(=O)CN2CCN(CC(=O)O)CCN(CC(=O)O)CCN(CC(=O)O)CC2)CC1)C(=O)O)C(=O)O [PS-4.2, DOTA-(HE)3-CHx-2NaI-PSMA] ({DOTA}-HEHEHE[Trx][2Nal]-EuK)
2. O=C(O)CC[C@H](NC(=O)N[C@@H](CCCCNC(=O)[C@H](Cc1c[nH]cn1)NC(=O)[C@H](Cc1c[nH]cn1)NC(=O)[C@H](Cc1c[nH]cn1)NC(=O)[C@H](Cc1ccc2ccccc2c1)NC(=O)[C@H]1CC[C@H](CNC(=O)CN2CCN(CC(=O)O)CCN(CC(=O)O)CCN(CC(=O)O)CC2)CC1)C(=O)O)C(=O)O [PS-8, DOTA-CHx-2NaI-(H)3-PSMA] ({DOTA-Trx}-[2Nal]HHH-EuK)

### Response
1.35
0.90
